// values below are reported composite z-score
Test system: Inhibin beta A chain (activin A)
Test: INHBA (activin A) binders on microarrays, primary screen, biochemical, small-molecule microarray, 635 nm fluorescence scan (AID 1107);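 further: mouse activin A protein probed at 4.33 µg/mL on printed slides; score merges bound-protein fluorescence near 667 nm with spot signal-to-noise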
Settings: small-molecule microarray binding, higher = more signal
The response must contain the number and no unit.

Field: example entries. Status: answers known.
>  <Compound>
C=CCNC(=O)[C@H]1[C@@H]2C(=O)O[C@@H](c3ccccc3)[C@@H](c3ccccc3)N2[C@@H](c2ccc(OCCO)cc2)[C@]12C(=O)N(C(=O)OCCOC)c1ccc(C#CCC(C(=O)OC)C(=O)OC)cc12

>  <Target under test>
Inhibin beta A chain (activin A)

>  <composite z-score>
0.768

$$$$
>  <Compound>
CN1C(=O)C2C=CC(C(O)c3cccs3)N(N(c3ccccc3)c3ccccc3)C2C1=O (stereo not drawn)

>  <Target under test>
Inhibin beta A chain (activin A)

>  <composite z-score>
1.27

$$$$

Give the reported composite z-score for COc1cc2c(cc1OC)CN(C(=O)[C@@H]1[C@H]3C(=O)O[C@H](c4ccccc4)[C@H](c4ccccc4)N3[C@H](c3ccc(O)cc3)[C@@]13C(=O)Nc1ccc(C#CC4=CCCCC4)cc13)CC2 (system: Inhibin beta A chain (activin A)).
0.475

----------
Target: Neurogenic locus notch homolog protein 2 (Homo sapiens) (UniProt Q04721)
Sequence (Q04721 whole entry, looked up): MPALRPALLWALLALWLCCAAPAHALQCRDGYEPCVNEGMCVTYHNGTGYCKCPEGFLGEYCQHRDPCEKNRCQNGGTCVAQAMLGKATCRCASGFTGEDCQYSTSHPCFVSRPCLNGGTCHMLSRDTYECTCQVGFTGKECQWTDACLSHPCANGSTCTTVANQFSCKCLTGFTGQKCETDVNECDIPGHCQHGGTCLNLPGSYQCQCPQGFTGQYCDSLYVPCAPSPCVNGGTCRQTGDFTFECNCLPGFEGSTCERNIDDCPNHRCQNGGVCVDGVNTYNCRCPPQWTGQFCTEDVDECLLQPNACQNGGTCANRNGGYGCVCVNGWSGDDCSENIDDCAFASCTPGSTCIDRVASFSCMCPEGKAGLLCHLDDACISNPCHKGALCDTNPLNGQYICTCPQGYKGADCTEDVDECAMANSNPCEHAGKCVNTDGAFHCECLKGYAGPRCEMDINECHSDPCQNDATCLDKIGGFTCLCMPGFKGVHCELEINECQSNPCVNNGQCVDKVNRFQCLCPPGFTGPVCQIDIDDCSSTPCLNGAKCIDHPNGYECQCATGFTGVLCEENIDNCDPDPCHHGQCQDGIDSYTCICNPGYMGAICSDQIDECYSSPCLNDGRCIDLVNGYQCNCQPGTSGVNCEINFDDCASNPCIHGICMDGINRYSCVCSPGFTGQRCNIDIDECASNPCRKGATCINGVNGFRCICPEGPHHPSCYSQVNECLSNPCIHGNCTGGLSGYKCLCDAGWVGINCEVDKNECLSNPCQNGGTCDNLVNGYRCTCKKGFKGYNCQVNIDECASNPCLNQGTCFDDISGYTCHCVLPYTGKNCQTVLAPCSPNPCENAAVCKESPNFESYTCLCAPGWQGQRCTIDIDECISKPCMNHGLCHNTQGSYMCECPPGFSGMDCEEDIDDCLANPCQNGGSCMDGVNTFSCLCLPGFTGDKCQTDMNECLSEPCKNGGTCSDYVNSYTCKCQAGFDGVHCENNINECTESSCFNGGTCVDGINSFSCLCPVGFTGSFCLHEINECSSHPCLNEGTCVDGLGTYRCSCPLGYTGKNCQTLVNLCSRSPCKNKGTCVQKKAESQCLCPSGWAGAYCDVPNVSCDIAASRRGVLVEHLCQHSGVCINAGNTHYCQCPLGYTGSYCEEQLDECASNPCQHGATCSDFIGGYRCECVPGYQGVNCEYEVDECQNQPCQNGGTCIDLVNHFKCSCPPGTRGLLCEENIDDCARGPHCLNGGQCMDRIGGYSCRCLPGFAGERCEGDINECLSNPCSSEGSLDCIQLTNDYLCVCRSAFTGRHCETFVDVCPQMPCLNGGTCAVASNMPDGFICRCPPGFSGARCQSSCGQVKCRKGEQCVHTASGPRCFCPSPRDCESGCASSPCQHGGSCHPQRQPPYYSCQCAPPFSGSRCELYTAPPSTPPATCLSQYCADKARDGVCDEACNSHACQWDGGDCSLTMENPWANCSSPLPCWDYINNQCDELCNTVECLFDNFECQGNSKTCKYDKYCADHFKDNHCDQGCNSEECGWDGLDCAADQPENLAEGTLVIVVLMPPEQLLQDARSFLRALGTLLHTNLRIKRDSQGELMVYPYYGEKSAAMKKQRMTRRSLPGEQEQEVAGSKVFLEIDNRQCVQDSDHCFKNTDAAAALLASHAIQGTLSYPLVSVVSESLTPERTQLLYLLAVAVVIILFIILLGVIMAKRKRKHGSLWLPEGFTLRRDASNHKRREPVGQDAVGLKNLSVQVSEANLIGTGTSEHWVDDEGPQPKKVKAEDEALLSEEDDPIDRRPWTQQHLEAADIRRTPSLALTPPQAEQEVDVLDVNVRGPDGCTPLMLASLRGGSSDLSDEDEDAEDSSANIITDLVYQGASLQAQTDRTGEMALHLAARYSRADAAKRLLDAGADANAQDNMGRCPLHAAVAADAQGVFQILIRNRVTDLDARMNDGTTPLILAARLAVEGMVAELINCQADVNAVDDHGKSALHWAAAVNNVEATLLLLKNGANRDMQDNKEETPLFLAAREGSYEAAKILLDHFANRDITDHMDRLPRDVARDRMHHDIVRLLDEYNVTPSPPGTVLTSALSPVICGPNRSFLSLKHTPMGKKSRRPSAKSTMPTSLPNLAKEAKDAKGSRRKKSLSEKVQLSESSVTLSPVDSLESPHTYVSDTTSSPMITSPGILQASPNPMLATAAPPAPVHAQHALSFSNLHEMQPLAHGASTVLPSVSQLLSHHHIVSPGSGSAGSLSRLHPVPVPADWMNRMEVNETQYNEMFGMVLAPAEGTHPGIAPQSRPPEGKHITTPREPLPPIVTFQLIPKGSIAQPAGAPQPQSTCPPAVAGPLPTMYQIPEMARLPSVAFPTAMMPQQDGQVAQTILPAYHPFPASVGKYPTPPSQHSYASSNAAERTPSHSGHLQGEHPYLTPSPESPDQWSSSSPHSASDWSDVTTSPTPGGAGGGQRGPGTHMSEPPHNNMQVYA
Experiment: Notch2 binders on small-molecule microarrays, primary screen, biochemical, small-molecule microarray, 635 nm fluorescence, stem cell growth factors (AID 1073)
Conditions: Notch2 binding, higher = more signal
Classification field: MET = composite z-score at or over -0.05; NOT MET = composite z-score under -0.05.

Would you say COC(=O)C1(CC(C)C)C=C2C(=C(C)C(=O)C2C)CN1 (centres undefined) shows composite z-score at minimum -0.05?
MET

Quick check: does COCCOC(=O)N1C(=O)[C@@]2(c3cc(C#CCCO)ccc31)[C@H](C(=O)N1CCN(c3ncccn3)CC1)[C@H]1C(=O)O[C@H](c3ccccc3)[C@H](c3ccccc3)N1[C@@H]2c1ccc(OCCO)cc1 have composite z-score greater than or equal to -0.05?
MET

Kindly determine if composite z-score recorded for CCCCC(=C=CC[C@@H](O)c1ccccc1OCCO)C[C@@H](O)c1ccccn1 is above or exactly -0.05.
MET

Test whether the compound CCOC(=O)C1=CCC(c2ccncc2)N(S(=O)(=O)c2ccc(C)cc2)C1 (centres undefined) records composite z-score of -0.05 or higher.
MET

Is composite z-score at least -0.05? Consider COc1ccc(CCNC(=O)[C@@]2(C)c3ccccc3C(=O)N(Cc3ccc(OC(F)(F)F)cc3)[C@H]2c2ccc(CO)cc2)cc1
MET

// inclusive: composite z-score at least -0.05? input: CC(C)c1ccc(NN2C(C(O)C(C)c3ccccc3)C=CC3C(=O)N(c4ccccc4)C(=O)C32)cc1 (centres undefined)
MET

Assess whether reported composite z-score for CCOC(=O)C[C@H]1[C@H](OC(=O)c2ccc(-c3ccccc3)cc2)[C@@H](NC(=O)C2CCCCC2)c2cc(OCCCO)ccc2N1C(=O)Cc1ccc(OC)cc1 sits at -0.05 or higher.
MET

Reported composite z-score reaches at least -0.05 for O=C1NC(=O)C2C1C=CC(C(O)C(c1ccccc1)c1ccccc1)N2Nc1ccccn1 (centres undefined) ?
MET

Check if composite z-score >= -0.05 (inclusive). Item: COC(=O)[C@]1(Cc2ccccc2CN=[N+]=[N-])N=C(c2ccc(OCCCO)cc2)O[C@@H]1c1ccccc1N=[N+]=[N-]
NOT MET

Identify whether the reported composite z-score of the following compound is -0.05 or greater: C=CCC(OC(C)=O)[C@@H]1[C@@H](N(Cc2ccc(-c3ccccc3)cc2)C(=O)Cc2ccc(OC)cc2)c2cc(OCCCO)ccc2N1C(=O)c1ccc2ccccc2c1 (some centres undefined)
NOT MET

Quick check, composite z-score >= -0.05? O=C1O[C@H](c2ccccc2)[C@H](c2ccccc2)N2[C@H]1[C@@H](C(=O)O)[C@]1(C(=O)Nc3ccc(C#CC4(O)CCCCCC4)cc31)[C@H]2c1ccccc1OCCO
MET

Is composite z-score at least -0.05? Consider COCCOC(=O)N1C(=O)[C@@]2(c3cc(C#CC4=CCCCC4)ccc31)[C@H](c1ccc(O)cc1)N1[C@H](c3ccccc3)[C@H](c3ccccc3)OC(=O)[C@H]1[C@@H]2C(=O)N1CCc2cc(OC)c(OC)cc2C1
MET

Does the compound COCCOC(=O)N1C(=O)[C@@]2(c3cc(C#CCNC(N)=O)ccc31)[C@H](C(=O)N1CCN(c3ncccn3)CC1)[C@H]1C(=O)O[C@H](c3ccccc3)[C@H](c3ccccc3)N1[C@@H]2c1ccc(O)cc1 have recorded composite z-score that is -0.05 or more?
NOT MET

# check: composite z-score of C[C@H]1C2[C@H](Cc3ccccc3)NC(=O)[C@]23C(=O)N[C@@H](Cc2ccccc2)C(=O)N2CCC[C@H]2C(=O)NC/C=C/CC/C=C/C3[C@@H]2O[C@]12C (some centres undefined) is greater than or equal to -0.05
MET

Please tell me: is the compound COc1ccc(C(=O)Nc2ccc(CN3C(=O)[C@@]4(O[C@@H](CC(=O)N(CCO)Cc5ccccc5)[C@H]([Si](C)(C)c5ccc(OC)cc5)[C@H]4C)c4ccccc43)cc2)cc1 at or over -0.05 in terms of composite z-score?
NOT MET

Does composite z-score meet or surpass -0.05 for COCCCNC(=O)[C@@]1(Cc2ccccc2I)c2ccccc2C(=O)N(C2CCCCC2)[C@H]1c1ccc(CO)cc1 ?
MET

Answer whether composite z-score of CC(C)N1CC=CC23O[C@@H]4/C=C\CCCOC(=O)C4[C@H]2C(=O)N(C(C)CO)[C@@H]3C1=O (some centres undefined) is greater than or equal to -0.05.
NOT MET

Given C=CCC(OC(C)=O)[C@@H]1[C@@H](N(Cc2cccc3ccccc23)C(=O)c2ccc(C)cc2)c2cc(OCCCO)ccc2N1C(=O)Cc1ccc2ccccc2c1 (some centres undefined) , state whether its composite z-score is at least -0.05.
NOT MET
